- testTarget: Dopamine Transporter (DAT) (Homo sapiens, UniProt Q01959)
- Sequence (Q01959 whole entry, species assumed): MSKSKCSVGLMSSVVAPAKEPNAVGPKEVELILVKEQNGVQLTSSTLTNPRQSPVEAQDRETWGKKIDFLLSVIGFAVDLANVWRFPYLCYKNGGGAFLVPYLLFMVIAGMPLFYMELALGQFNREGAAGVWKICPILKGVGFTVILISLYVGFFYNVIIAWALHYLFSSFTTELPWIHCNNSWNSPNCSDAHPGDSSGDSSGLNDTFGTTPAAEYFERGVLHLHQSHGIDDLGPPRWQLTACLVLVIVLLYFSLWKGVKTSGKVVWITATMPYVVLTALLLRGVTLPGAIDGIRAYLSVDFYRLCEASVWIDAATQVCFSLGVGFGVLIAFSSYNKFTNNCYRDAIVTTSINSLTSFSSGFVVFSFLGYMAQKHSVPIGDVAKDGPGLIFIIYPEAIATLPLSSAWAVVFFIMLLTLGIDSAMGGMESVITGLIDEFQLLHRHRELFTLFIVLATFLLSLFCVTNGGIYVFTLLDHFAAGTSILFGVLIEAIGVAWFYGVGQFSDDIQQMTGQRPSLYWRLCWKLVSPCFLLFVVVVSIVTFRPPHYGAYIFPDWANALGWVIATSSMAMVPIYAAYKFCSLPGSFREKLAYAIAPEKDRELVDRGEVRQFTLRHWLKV
reportedProperty: pKi
Scale note: pKi = -log10(concentration in M).

[Q] Please respond with reported pKi (system Dopamine Transporter (DAT) (Homo sapiens, UniProt Q01959)) for "O=C(NCCCCC(c1ccc(F)cc1)c1ccc(F)cc1)Nc1ccc(Cl)cc1" .
[A] 8.28
